# Test system: SR leukemia
# Assay Details: NCI tumour cell line growth inhibition, 48 h
Recorded TGI values for a group of molecules are listed next.
Write it as a number; the unit µM goes unstated.

In one line, give reported TGI of the entry O=[N+]([O-])c1cc(S(=O)(=O)Oc2ccccc2)ccc1Cl .
5.8

In one line, give reported TGI of the entry O=C(O)/C(Cl)=C(\Cl)C(=O)Nc1ccc(Cl)c(Cl)c1Cl .
70.1

In one line, give reported TGI of the entry CC(C)(CC(O)C#N)/[N+]([O-])=[N+](\[O-])C(C)(C)CC(O)C#N (stereo not given) .
49.5

In one line, give reported TGI of the entry CCOc1nc(N)nc(C)c1N=Nc1ccc(Cl)cc1 .
23.9

Would you kindly look at the next entry?
In one line, give reported TGI of the entry COc1ccc(C(Cl)=C(c2ccc(OCCN(C)C)cc2)c2ccc(OCCN(C)C)cc2)cc1 .
3.16

###

# System: HCC-2998 colon
# Assay Details: NCI tumour cell line growth inhibition, 48 h; in the data active means GI50 below about 0.43 µM; inactive means the rest
# valid calls are true (1) for active, false (0) for inactive; nothing else

Use these answered entries as a reference point.
Identify the outcome logged in this assay for the compound shown: COc1cc2c(c(OC)c1OC)-c1ccc(SC)c(=O)cc1[C@@H](NC1OC(CO)C(O)C(O)C1O)CC2 (stereo partly specified)
true (1)

Identify the outcome logged in this assay for the compound shown: O=C(Oc1cccnc1)c1ccsc1Nc1ccnc(C(F)(F)F)c1
false (0)

Identify the outcome logged in this assay for the compound shown: CCN1C(=O)N(CC)C2C1NN=c1s/c(=C3\C(=O)N(CCc4ccccc4)c4ccccc43)c(=O)n12 (stereo unspecified)
false (0)

Identify the outcome logged in this assay for the compound shown: CC1(C)N=C(N)N=C(N)N1c1ccc(CCCCc2ccc(S(=O)(=O)F)cc2)c(Cl)c1
false (0)

Identify the outcome logged in this assay for the compound shown: CN1CCC(n2cnc(-c3ccc(F)cc3)c2-c2ccnc(N)n2)CC1
false (0)

---
Identify the outcome logged in this assay for the compound shown: CCCCCn1sc(=O)n(Cc2ccc(CNC(=O)OCc3ccc4cccc(O)c4n3)cc2)c1=O
false (0)

Identify the outcome logged in this assay for the compound shown: C#CCOc1cccc(Nc2ncnc3c(NC(=O)CCl)cccc23)c1
false (0)

Identify the outcome logged in this assay for the compound shown: BrCc1ccc(CBr)cc1
false (0)

###

Recorded TGI values for a group of compounds are listed next.
# Tested on: T-47D breast
# Assay Details: NCI tumour cell line growth inhibition, 48 h
Write it as a number; the unit µM goes unstated.

In one line, give reported TGI of the entry COc1ccc(/C=C2\CN(C)C/C(=C\c3ccc(OC)c(OC)c3OC)C2=O)c(OC)c1OC .
6.22

Would you kindly look at the next entry?
In one line, give reported TGI of the entry Cc1nc(-c2ccc(N=Cc3ccc(N(CCOS(C)(=O)=O)CCOS(C)(=O)=O)cc3C)cc2)cs1 .
90.2

###

Recorded TGI values for a group of compounds are listed next.
# Tested on: SR leukemia
# Assay Details: NCI tumour cell line growth inhibition, 48 h

Worked cases, answers included:
Check SR leukemia data and give TGI for Nc1nc(Cl)c(N)c(NCC2(CO)CC(CCCc3ccccc3)C2)n1 (stereo not given) .
> 100 µM

Check SR leukemia data and give TGI for Cn1cc(-c2nonc2-c2cn(C)c3ccccc23)c2ccccc21 .
> 100 µM

Check SR leukemia data and give TGI for Cc1cccc(NC(=O)c2sc3nc4c(cc3c2N)CN(Cc2ccccc2)CC4)c1C .
> 50 µM

Check SR leukemia data and give TGI for CCOC(=O)C(=O)Nc1cc(Cl)ccc1Cl .
> 100 µM

Check SR leukemia data and give TGI for C/C(=C/CC[C@]1(CO)CC[C@]2(CO)[C@H](CC[C@@H]3[C@@]4(C)CC[C@H](OC5OCC(O)C(O)C5OC5OC(CO)C(O)C(O)C5O)C(C)(C)[C@@H]4CC[C@]32C)[C@H]1O)CO (stereo not given in full) .
> 100 µM

Check SR leukemia data and give TGI for COC(=O)CC1NC(=O)C1C1(C)OCCO1 (stereo not given) .
> 100 µM

---
Check SR leukemia data and give TGI for CSC(=S)N/N=C(\C)c1cccc(C)n1 .
> 65.6 µM

Check SR leukemia data and give TGI for CN(C)CCCN1c2ccccc2CCc2ccc([N+](=O)[O-])cc21 .
> 100 µM

Check SR leukemia data and give TGI for COc1ccc(N=C2C(=Nc3ccc(OC)cc3)N(c3ccccc3)C(=S)N2N=C=C2Sc3ccccc3N2C)cc1 .
> 100 µM

Check SR leukemia data and give TGI for O=C(Nc1cccc(Nc2ncc(Br)c(NCCc3cnc[nH]3)n2)c1)N1CCCC1 .
28 µM

Check SR leukemia data and give TGI for CN(CCCCCl)P(=O)(OCCS(=O)(=O)CC(NC(=O)CCC(N)C(=O)O)C(=O)NC(C(=O)O)c1ccccc1)OCC1OC(n2cc(F)c(=O)[nH]c2=O)CC1O (stereo not given) .
> 90.9 µM

Check SR leukemia data and give TGI for C[C@@H]1O[C@@H](OC[C@H]2O[C@@H](OCCc3ccc(O)c(O)c3)[C@H](O)[C@@H](O)[C@@H]2OC(=O)/C=C/c2ccc(O)c(O)c2)[C@H](O)[C@H](O)[C@H]1O .
> 100 µM

Check SR leukemia data and give TGI for N/N=C1\CC(=O)NC(=O)N1 .
> 100 µM

Check SR leukemia data and give TGI for COc1ccc(OC)c(Cn2cc3c(c2)-c2oncc2CC3)c1 .
18.2 µM

###

Recorded TGI values for a group of compounds are listed next.
# Tested on: OVCAR-3 ovarian
# Assay Details: NCI tumour cell line growth inhibition, 48 h

Check OVCAR-3 ovarian data and give TGI for Cc1ccc(NC(=O)c2ccccc2C(=O)O)cc1C .
> 100 µM

Would you kindly look at the next entry?
Check OVCAR-3 ovarian data and give TGI for COc1ccc(/C=C2\CN(C)C/C(=C\c3ccc(OC)c(OC)c3OC)C2=O)c(OC)c1OC .
0.335 µM

###

# Test system: UACC-62 melanoma
# Assay Details: NCI tumour cell line growth inhibition, 48 h; in the data active = GI50 below about 0.43 µM; inactive = the rest
# valid calls are 1 (active), -1 (inactive); nothing else

Use these answered entries as a reference point.
Identify the outcome logged in this assay for the molecule shown: O=C(Nc1cccc(Nc2ncc(Br)c(NCCc3cnc[nH]3)n2)c1)N1CCCC1
-1

Identify the outcome logged in this assay for the molecule shown: CC1(C)N=C(N)N=C(N)N1c1ccc(CCCCc2ccc(S(=O)(=O)F)cc2)c(Cl)c1
1

Identify the outcome logged in this assay for the molecule shown: COc1ccc2c(c1)OC1=C(C(=O)OC1)C2c1cc(OC)c2c(c1)OCO2 (configuration not stated)
1

Identify the outcome logged in this assay for the molecule shown: C[CH2][Pb]([CH2]C)([CH2]C)[O]C(=O)c1ccc2ccccc2n1
-1

Identify the outcome logged in this assay for the molecule shown: CC(=O)c1c(C(F)(F)F)n([O-])c2ccc(C)cc2[n+]1=O
-1

---
Identify the outcome logged in this assay for the molecule shown: Cn1cc(-c2nonc2-c2cn(C)c3ccccc23)c2ccccc21
-1

Identify the outcome logged in this assay for the molecule shown: O=C1NC(=O)C(c2cccc(Cl)c2)=C1Nc1ccc(O)c(Cl)c1
-1

Identify the outcome logged in this assay for the molecule shown: CC(C)(C)c1ccc(C(=O)Nc2sc3c(c2C(N)=O)CCC(=O)C3)cc1
-1

Identify the outcome logged in this assay for the molecule shown: Cc1c(C2=C(c3cn(C)c4ccccc34)C(=O)NC2=O)c2ccccc2n1C
-1

Identify the outcome logged in this assay for the molecule shown: O=C([CH-]C(=O)c1ccccc1)c1ccccc1.O=C([CH-]C(=O)c1ccccc1)c1ccccc1.[OH-].[OH-].[Ti+4]
-1

Identify the outcome logged in this assay for the molecule shown: CC(=O)Oc1ccccc1C(=O)/C=C/c1cccc([N+](=O)[O-])c1
-1

Identify the outcome logged in this assay for the molecule shown: Nc1ccc(-c2nc3ccccc3[nH]2)c2ccccc12
-1

###

# System: HT29 colon
# Assay Details: NCI tumour cell line growth inhibition, 48 h
Value Kind: TGI (µM)
Write it as a number; the unit µM goes unstated.

Check HT29 colon data and give TGI for N#Cc1ccc(N=Cc2c([O-])ccc3ccccc23)cc1.[C-]#[O+].[C-]#[O+].[Ir] .
42.3

Check HT29 colon data and give TGI for Cc1cc(O)c(C(C)C)cc1C1(c2cc(C(C)C)c(O)cc2C)OC(=O)c2ccccc21 .
5.84

Check HT29 colon data and give TGI for CCN(CCO)CC(C)Nc1ccc([N+](=O)[O-])c2sc3ccccc3c(=O)c12 (configuration not stated) .
3.62

Check HT29 colon data and give TGI for CN1CCN(CC(O)COc2c(Br)c(Br)c(Br)c3c2OC(C)(C)C3)CC1 (configuration not stated) .
4.54

Check HT29 colon data and give TGI for CN(CCCNC(=O)c1nn(-c2ccc(Cl)cc2Cl)c2c1Cc1ccccc1-2)CCCNC(=O)c1nn(-c2ccc(Cl)cc2Cl)c2c1Cc1ccccc1-2 .
3.42

Check HT29 colon data and give TGI for CC(=O)Oc1ccccc1C(=O)/C=C/c1cccc([N+](=O)[O-])c1 .
4.92

Check HT29 colon data and give TGI for COc1cc(/C=C/[N+](=O)[O-])cc(Br)c1OC .
3.57

Check HT29 colon data and give TGI for C[C@@H]1O[C@@H](O[C@H]2CC[C@@]3(C)[C@H](CCC4[C@@H]3C(O)C[C@]3(C)[C@@H](c5ccc(=O)oc5)CC[C@]43O)C2)[C@H](O)[C@H](O)[C@H]1O (some centres not stated) .
0.00975

Would you kindly look at the next entry?
Check HT29 colon data and give TGI for CCC(c1c[nH]c2ccc(Br)cc12)c1c[nH]c2ccc(Br)cc12 .
10.4
